system_name: Ac-DAF-12 (Ancylostoma caninum, UniProt A0A368G7M4)
Sequence (A0A368G7M4 entry or part of it): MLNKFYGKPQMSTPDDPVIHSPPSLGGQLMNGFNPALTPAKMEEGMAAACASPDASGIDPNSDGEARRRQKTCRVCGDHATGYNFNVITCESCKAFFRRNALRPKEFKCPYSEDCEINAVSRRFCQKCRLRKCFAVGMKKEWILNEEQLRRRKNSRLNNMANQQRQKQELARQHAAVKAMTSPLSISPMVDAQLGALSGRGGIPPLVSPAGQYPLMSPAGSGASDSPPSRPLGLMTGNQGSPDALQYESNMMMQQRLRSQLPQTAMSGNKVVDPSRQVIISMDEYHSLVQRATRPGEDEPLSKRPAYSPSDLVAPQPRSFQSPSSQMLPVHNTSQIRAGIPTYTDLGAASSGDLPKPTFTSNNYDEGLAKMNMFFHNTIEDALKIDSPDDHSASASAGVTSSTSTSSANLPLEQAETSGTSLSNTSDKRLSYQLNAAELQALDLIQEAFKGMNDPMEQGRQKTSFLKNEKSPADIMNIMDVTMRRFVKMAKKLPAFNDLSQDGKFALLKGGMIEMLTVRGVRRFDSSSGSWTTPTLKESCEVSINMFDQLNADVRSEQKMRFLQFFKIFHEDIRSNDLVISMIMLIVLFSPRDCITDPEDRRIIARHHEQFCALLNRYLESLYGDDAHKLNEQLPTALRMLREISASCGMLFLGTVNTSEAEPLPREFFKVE
run_description: luciferase reporter assay in HEK293 cells
pEC50: −log10 of the molar value.

- molecule: "C[C@H](CCC[C@H](C)C(=O)O)[C@H]1CC[C@H]2C3=CC[C@H]4CC(=O)CC[C@]4(C)[C@H]3CC[C@]12C [(25S)-Δ7-DA]"
  pEC50: 7.89

----------
system_name: UniProt A0A650FMZ7
Sequence (A0A650FMZ7 entry or part of it): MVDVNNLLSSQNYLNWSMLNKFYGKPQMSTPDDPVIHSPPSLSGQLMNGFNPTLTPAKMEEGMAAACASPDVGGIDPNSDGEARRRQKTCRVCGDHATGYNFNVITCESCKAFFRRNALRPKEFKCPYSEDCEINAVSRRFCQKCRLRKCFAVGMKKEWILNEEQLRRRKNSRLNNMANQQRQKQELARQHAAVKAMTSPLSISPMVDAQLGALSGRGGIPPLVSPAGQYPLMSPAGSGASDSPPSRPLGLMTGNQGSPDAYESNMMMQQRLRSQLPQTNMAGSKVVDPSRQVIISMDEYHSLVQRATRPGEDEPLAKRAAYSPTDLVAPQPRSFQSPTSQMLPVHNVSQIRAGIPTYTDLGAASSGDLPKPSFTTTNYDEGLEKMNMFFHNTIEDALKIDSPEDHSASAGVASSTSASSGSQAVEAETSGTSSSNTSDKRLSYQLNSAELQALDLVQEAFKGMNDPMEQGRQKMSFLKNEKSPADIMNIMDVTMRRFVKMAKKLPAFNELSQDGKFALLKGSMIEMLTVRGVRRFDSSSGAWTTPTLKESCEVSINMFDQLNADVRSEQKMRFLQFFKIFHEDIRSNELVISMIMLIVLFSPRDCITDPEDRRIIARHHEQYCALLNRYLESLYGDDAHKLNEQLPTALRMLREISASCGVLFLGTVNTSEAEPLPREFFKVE
run_description: luciferase reporter assay in HEK293 cells transfected with Hc-DAF-12
pEC50: −log10 of the molar value.
reported_property: pEC50

- compound: "C[C@H](CCC[C@H](C)C(=O)O)[C@H]1CC[C@H]2C3=CC[C@H]4CC(=O)CC[C@]4(C)[C@H]3CC[C@]12C [(25S)-Δ7-DA]"
  readout_value: 7.90

These measurements were taken from paper PMC6677322.
